binders and their reported IC50
# SYSTEM: T1, interleukin 5 (IL5) (human, UniProt P05113 20-134)
# T1 construct: also called human IL5 (R&D Systems)
# T1 sequence (looked up): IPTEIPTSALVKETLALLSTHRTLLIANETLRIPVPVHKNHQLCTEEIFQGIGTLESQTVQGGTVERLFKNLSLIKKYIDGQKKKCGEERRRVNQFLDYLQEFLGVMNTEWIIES
# ASSAY_TEXT: phage competition ELISA (phage IC50), soluble IL5 against IL5-coated wells

[
  {
    "BINDER": "E7, anti-IL4/IL5 dual specific variant of hu19C11, Fab displayed on phage (Fab, V domains shown, also called clone E7) VH: EVQLVQSGAEVKKPGASVKVSCKASGYTFTDYFIHWVRQAPGQGLEWIAGIVYDATGFTTYADDFKGRVTITRDTSTSTAYLELSSLRSEDTAVYYCARGGIFYGMDYWGQGTLVTVSS VL: DIQMTQSPSSLSASVGDRVTITCKASQSVINDAAWYQQKPGKAPKLLIYYTSHRYTGVPSRFSGSGSGTDFTLTISSLQEDFATYYCQQDYTSPWTFGQGTKVEIKR",
    "IC50": "~1000 nM"
  },
  {
    "BINDER": "1C.3 (Fab, V domains shown) VH: EVQLVQSGAEVKKPGASVKVSCKASGYTFTDYFIHWVRQAPGQGLEWIGGIVYDATGFTTYAVEFKGRVTITRDTSTSTAYLELSSLRSEDTAVYYCARGGIFYGMDYWGQGTLVTVSS VL: DIQMTQSPSSLSASVGDRVTITCKASQSVINDAAWYQQKPGKAPKLLIYYTSHRYTGVPSRFSGSGSGTDFTLTISSLQEDFATYYCQQDYTHPWTFGQGTKVEIKR",
    "IC50": "~1000 nM"
  }
]
